- tgt: T1, RADIL, Q96JH8
- T1 sequence (Q96JH8 971-1071, limits assumed, looked up): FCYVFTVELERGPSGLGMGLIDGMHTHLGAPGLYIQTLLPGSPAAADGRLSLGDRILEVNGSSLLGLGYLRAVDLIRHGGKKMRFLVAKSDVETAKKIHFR
- test-name: holdup assay
- Parameters: key: below the threshold = too weak to quantify, mostly under pKd 3.1 to 4
- measurement-setup: plain residues with an end cap or a label only (N-terminal biotin on a linker: ahx)
property-name: pKd

Past entries and their recorded results:
[[record]]
binder = "EKQAKGDTEF [CACYBP, Q9HB71]"
property_name = "pKd"
value_reported = "below the threshold"

[[record]]
binder = "HTHSYIETHV [CNKSR2, Q8WXI2]"
property_name = "pKd"
value_reported = 4.22

[[record]]
binder = "TESNLQTSSC [CGN, Q9P2M7]"
property_name = "pKd"
value_reported = "below the threshold"

[[record]]
binder = "TQKFRASTAL [FRMPD1, Q5SYB0]"
property_name = "pKd"
value_reported = "below the threshold"

[[record]]
binder = "TEAKLTETNA [MYO18A, Q92614]"
property_name = "pKd"
value_reported = "below the threshold"


Look up and report measured pKd for this entry: QNTDDVQTSF [ACE2, Q9BYF1]
below the threshold

Report measured pKd; entry is APSRKLNTEI [TIAM1, Q13009]
below the threshold

Determine its reported pKd: QDEKVKESYV [ABCA1, O95477]
4.89

Provide measured pKd value, entry: QPRTWLQSPV [RTKN, Q9BST9]
below the threshold
